tested on: Escherichia coli TOP10; assay: shrunken log2 fold change of peptide-encoding DNA abundance (4.5 h post-induction vs induction); higher = less antimicrobial activity (less host growth inhibition); conditions: time post-induction: 4.5 h; library: site-saturation at positions 5, 18, 19, 20;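 note: peptides expressed intracellularly from a pBAD plasmid library in pooled LB shake-flask culture, induced with 0.3% L-arabinose, DNA abundance read by NGS, three biological replicates, DESeq2 with apeglm shrinkage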
Task for the reader: assign each of the following sequences its reported shrunken log2 fold change.
Could you keep your reply to the number by itself?

Fill in the recorded shrunken log2 fold change for this sequence, with Escherichia coli TOP10 as test system: RRIRNRPPRLPRPRPRPPQKPRP
0.544

Try RRIRLRPPRLPRPRPRPNLQPRP next.
-0.0904

Now this one: RRIRCRPPRLPRPRPRPIQTPRP
0.299

Another sequence to look at: RRIRLRPPRLPRPRPRPPGWPRP
0.218

Then RRIRTRPPRLPRPRPRPIVQPRP ?
0.0444

Try this sequence next: RRIRMRPPRLPRPRPRPIAQPRP
0.726
